Reported values of IC50 for individual entries
- assayed-target: cyclin D1/cdk 4 enzyme (Homo sapiens, UniProt P11802)
- Construct: made in house; host or cells: Sf9 insect cells, recombinant baculovirus
- Sequence (P11802 whole entry, species assumed): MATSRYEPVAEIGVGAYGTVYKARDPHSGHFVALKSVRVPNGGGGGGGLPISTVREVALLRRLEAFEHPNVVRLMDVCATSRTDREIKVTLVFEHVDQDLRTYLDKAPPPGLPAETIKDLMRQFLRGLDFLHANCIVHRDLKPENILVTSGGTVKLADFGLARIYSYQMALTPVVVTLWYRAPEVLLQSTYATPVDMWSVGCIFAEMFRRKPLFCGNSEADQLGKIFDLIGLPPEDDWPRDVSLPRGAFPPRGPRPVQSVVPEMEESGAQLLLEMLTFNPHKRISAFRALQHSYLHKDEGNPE
- Sequence (P24385 whole entry partner, species assumed): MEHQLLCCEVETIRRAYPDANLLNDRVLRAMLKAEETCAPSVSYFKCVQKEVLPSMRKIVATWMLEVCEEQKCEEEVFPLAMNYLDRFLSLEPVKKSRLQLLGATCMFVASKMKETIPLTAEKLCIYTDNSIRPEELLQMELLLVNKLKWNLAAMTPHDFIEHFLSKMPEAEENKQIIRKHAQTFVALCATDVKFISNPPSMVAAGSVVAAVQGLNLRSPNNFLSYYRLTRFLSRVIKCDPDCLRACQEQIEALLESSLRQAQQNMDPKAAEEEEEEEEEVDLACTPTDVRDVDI
- assay-details: CDK4 ELISA kinase assay (phospho-Rb ser 795 detection)
- Type: biochemical
- conditions: In Vitro Enzyme Assay, cyclin D1/cdk 4, read-out: CDK4 IC50
readout-name: IC50 (µM)

1. COc1ccc(CNC=C2C(=O)NC(=O)c3ccc(-c4ccc[nH]4)cc32)cc1O [Example 836] | 0.01
2. COc1cccc(-c2ccc3c(c2)C(=CNc2ccc(CC#N)cc2)C(=O)NC3=O)c1 [Example 702] | 20.9
3. CN1CCN(c2ccc(NC=C3C(=O)NC(=O)c4ccc(C=Cc5ccc6ccccc6c5)cc43)cc2)CC1 [Example 674] | 11.7
4. O=C1NC(=O)c2ccccc2C1=CNC(Cc1ccc(O)c(O)c1)C(=O)O (centres unmarked) [Example 567] | 11.9
5. COc1cc(-c2ccc3c(c2)C(=CNCc2ccc(O)c(O)c2)C(=O)NC3=O)cc(OC)c1OC [Example 815] | 2.5
6. O=C1NC(=O)c2ccccc2C1=CNc1ccc(C(=O)O)c(O)c1 [Example 560] | 17.3
7. O=C1NC(=O)c2ccc(-c3ccc(F)cc3)cc2C1=CNCc1ccc(O)c(O)c1 [Example 767] | 0.17
8. O=C1NC(=O)c2ccc(-c3cccc(-c4ccccc4)c3)cc2C1=CNCc1ccc(O)c(O)c1 [Example 787] | 2.27
